# Test system: - MDAMB-231
# assay remarks: Antiproliferative assay (MTT) MDAMB-231
# test context: MDAMB-231, 25 µM
compounds and their reported Average of Relative viability of cells (%)
observation type: Average of Relative viability of cells (%)

compound: Cc1nc(SCC(=O)Nc2nc(-c3ccc(Cl)cc3)cs2)sc1C(=O)/C=C/c1ccccc1 [Compound 10f]
measure unit: %
readout value: 27.4
//
compound: Cc1ccc(-c2csc(NC(=O)CSc3nc(C)c(C(=O)/C=C/c4ccc(F)cc4)s3)n2)cc1 [Compound 10m]
measure unit: %
readout value: 43.7
//
compound: Cc1nc(SCC(=O)Nc2nccs2)sc1C(=O)/C=C/c1ccc(Cl)cc1 [Compound 13b]
measure unit: %
readout value: 26.3
//
compound: Cc1nc(SCC(=O)Nc2nc(-c3ccc(Cl)cc3)cs2)sc1C(=O)/C=C/c1ccc(F)cc1 [Compound 10h]
measure unit: %
readout value: 37.1
//
compound: Cc1ccc(/C=C/C(=O)c2sc(SCC(=O)Nc3nc(-c4ccccc4)cs3)nc2C)cc1 [Compound 10d]
measure unit: %
readout value: 25.8
//
compound: Cc1nc(SCC(=O)Nc2nccs2)sc1C(=O)/C=C/c1ccc(F)cc1 [Compound 13c]
measure unit: %
readout value: 50.1
//
compound: Cc1ccc(/C=C/C(=O)c2sc(SCC(=O)Nc3nccs3)nc2C)cc1 [Compound 13d]
measure unit: %
readout value: 15.6
//
compound: COc1ccc(/C=C/C(=O)c2sc(SCC(=O)Nc3nc(-c4ccc(C)cc4)cs3)nc2C)cc1 [Compound 10o]
measure unit: %
readout value: 17.6
